test system: ATF4 translation (ATF4 pathway), SH-SY5Y-ATF4-NanoLuc cells; assay: ATF4 cell based assay (ATF4 5'-UTR NanoLuc luciferase reporter, Thapsigargin induced cellular stress); settings: SH-SY5Y-ATF4-NanoLuc cells challenged with Thapsigargin for 14-18 hours; average of two or more experimental runs; read-out: average ATF4 pathway inhibitory activity (IC50)
A collection of molecules and their measured IC50

molecule	IC50
O=C(COc1ccc(Cl)cn1)N[C@H]1[C@@H]2CN(CCCOc3ccc(Cl)cc3)C[C@@H]21	< 100 nM
O=C(COc1ccc(Cl)cc1)NC[C@@H]1CCN(CCCOc2ccc(Cl)cc2)C1	101 to 1000 nM
O=C(COc1ccc(Cl)cc1)NCC1CCN(C(=O)CCOc2ccc(Cl)cc2)C1 (centres unmarked)	< 100 nM
O=C(COc1ccc(Cl)cc1)NCC1CCN(CC(=O)Nc2ccc(Cl)cc2)C1 (centres unmarked)	< 100 nM
O=C(COc1ccc(Cl)cc1)NC[C@H]1CCN(CCCOc2ccc(Cl)cc2)C1	< 100 nM

In plain terms, O=C(COc1ccc(Cl)nc1)N[C@H]1[C@@H]2CN(CCCOc3ccc(Cl)cc3)C[C@@H]21 has a documented IC50 of < 100 nM

The molecule listed as O=C(COc1ccc(Cl)cc1)NCC1CCN(C(=O)CCCc2ccc(Cl)cc2)C1 (centres unmarked) has a reported IC50 of < 100 nM

Documented IC50 of O=C(COc1ccc(Cl)cc1)NCC1(F)CCN(CCCOc2ccc(Cl)cc2)C1 (centres unmarked) : 101 to 1000 nM
